molecular target: human Y2 receptor (human) (UniProt P49146); test: cell-based or functional assay
Sequence (P49146 whole entry): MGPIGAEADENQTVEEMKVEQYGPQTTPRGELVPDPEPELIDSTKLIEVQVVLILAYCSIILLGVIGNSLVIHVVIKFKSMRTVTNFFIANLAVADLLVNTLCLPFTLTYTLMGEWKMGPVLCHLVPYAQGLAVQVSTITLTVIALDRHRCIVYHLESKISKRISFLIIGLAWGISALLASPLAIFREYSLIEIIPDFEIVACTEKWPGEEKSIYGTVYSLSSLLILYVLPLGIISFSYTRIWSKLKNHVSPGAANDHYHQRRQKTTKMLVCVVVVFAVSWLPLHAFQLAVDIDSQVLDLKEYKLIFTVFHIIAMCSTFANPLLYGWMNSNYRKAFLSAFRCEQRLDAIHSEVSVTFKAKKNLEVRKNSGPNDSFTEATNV
Non-standard residues stand in square brackets, D forms with d. Cha = N[C@@H](CC1CCCCC1)C(=O)O; d(αMeP) = C[C@]1(C(=O)O)CCCN1; Aib = CC(C)(N)C(=O)O
READOUT_TYPE: GBA EC50 Ratio (vs PYY(3-36)), [35S]GTPγS
# print the numeric value only

Enquiry: // lookup GBA EC50 Ratio (vs PYY(3-36)), [35S]GTPγS for Ac-S[d(αMeP)]RH[Cha][Cha]NL[Aib]TRQR[Cha]-NH2 (SMILES CC(=O)N[C@@H](CO)C(=O)N1CCC[C@]1(C)C(=O)N[C@@H](CCCNC(=N)N)C(=O)N[C@@H](Cc1c[nH]cn1)C(=O)N[C@@H](CC1CCCCC1)C(=O)N[C@@H](CC1CCCCC1)C(=O)N[C@@H](CC(N)=O)C(=O)N[C@@H](CC(C)C)C(=O)NC(C)(C)C(=O)N[C@H](C(=O)N[C@@H](CCCNC(=N)N)C(=O)N[C@@H](CCC(N)=O)C(=O)N[C@@H](CCCNC(=N)N)C(=O)N[C@@H](CC1CCCCC1)C(N)=O)[C@@H](C)O) [Ac-[D-αMePro24, Cha27,28,36, Aib31]-PYY(23-36)]
Return: 2.6
